# Test system: CCRIS mutagenicity, Ames/micronucleus/aberration tests
# assay: CCRIS mutagenicity studies
# cond: Test System: AMES SALMONELLA TYPHIMURIUM; Strain/Indicator: TA98; Metabolic Activation: NONE; Method: STANDARD PLATE
The source made the active and inactive calls. The rule behind the calls is not given here.
Classes to choose from: t for active, f for inactive

Past entries and their recorded results:
[
  {
    "entry smiles": "C=Cc1ccc([N+](=O)[O-])cc1",
    "label value": "t"
  },
  {
    "entry smiles": "O.O.O.O=C([O-])[C@H]([O-])[C@@H]([O-])C(=O)[O-].O=C([O-])[C@H]([O-])[C@@H]([O-])C(=O)[O-].[K+].[K+].[Sb+3].[Sb+3]",
    "label value": "f"
  },
  {
    "entry smiles": "OCCNc1ccc(N=Nc2ccc(NCCO)cc2)cc1",
    "label value": "f"
  },
  {
    "entry smiles": "Nc1cc2c(cc1[N+](=O)[O-])[nH]c1ccccc12",
    "label value": "t"
  }
]

Lookup: Test call for this compound, please: COc1c2ccoc2nc2c(O)cccc12
Found: f

Lookup: Given O=C1CCC(=O)N1O , state the outcome it received in this test.
Found: f

Lookup: Please state the recorded outcome for this compound: Nc1nc2n[nH]nc2c(=O)[nH]1
Found: f

----------
# Test system: CCRIS mutagenicity, Ames/micronucleus/aberration tests
# assay: CCRIS mutagenicity studies
# cond: Test System: AMES SALMONELLA TYPHIMURIUM; Strain/Indicator: TA97; Metabolic Activation: HAMSTER, LIVER, S-9, AROCLOR 1254 (30%); Method: PREINCUBATION
# Excerpt: The CCRIS database contains chemical records with carcinogenicity, mutagenicity, tumor promotion, and tumor inhibition test results. It was developed by the National Cancer Institute (NCI). Data are derived from studies cited in primary journals, current awareness tools, NCI reports, and other sources. Test results have been reviewed by experts in carcinogenesis and mutagenesis. CCRIS provides historical information from the years 1985 - 2011. It is no longer updated. […]
Active and inactive are the calls of the source. How the calls were made is not given here.
outcome measure: mutagenic call

[
  {
    "compound": "Cc1ccc(S(=O)(=O)NC(=O)NN2CCCCCC2)cc1",
    "test result": "inactive; negative"
  },
  {
    "compound": "O=C1Nc2ccc(Cl)cc2C(c2ccccc2)=NC1O (stereo not drawn)",
    "test result": "inactive; negative"
  },
  {
    "compound": "CC/C=C/C#N",
    "test result": "inactive; negative"
  }
]

----------
# Test system: CCRIS mutagenicity, Ames/micronucleus/aberration tests
# assay: CCRIS mutagenicity studies
# cond: Test System: AMES SALMONELLA TYPHIMURIUM; Strain/Indicator: TA1535; Metabolic Activation: HAMSTER, LIVER, S-9, AROCLOR 1254; Method: PREINCUBATION
Activity calls are given as the source filed them. How the calls were made is not given here.
Outcomes you can answer with include only these: active, inactive

Worked set:
[
  {
    "molecule": "C[Si](C)(C)Cl",
    "test system": "CCRIS mutagenicity, Ames/micronucleus/aberration tests",
    "label value": "inactive"
  },
  {
    "molecule": "CC(O)c1ccccc1 (centres undefined)",
    "test system": "CCRIS mutagenicity, Ames/micronucleus/aberration tests",
    "label value": "inactive"
  },
  {
    "molecule": "COc1cccc(N)c1",
    "test system": "CCRIS mutagenicity, Ames/micronucleus/aberration tests",
    "label value": "inactive"
  }
]

Lookup: How was C=CC(=O)OCC classified in this test?
Found: inactive

Lookup: // return assay outcome for CN(CCCC(=O)c1cccnc1)N=O
Found: active

Lookup: // outcome(item) with item = Nc1c(Br)cc(Br)c2c1C(=O)c1ccccc1C2=O
Found: inactive

Lookup: Recorded test outcome, item Oc1ccc(Cl)c(Cl)c1
Found: inactive

Lookup: Would you mind telling me which call this test gave CCC1CO1 (centres undefined) ?
Found: active

Lookup: I would be grateful if you could indicate the recorded call for Cc1cc(=O)oc2cc(O)ccc12 .
Found: inactive

Origin of measurements: PubChem BioAssay AID1259407
